solubility kinetic by entry:
Measurement conditions: buffer; pH 7.4; 200.0 µM
Readout name: solubility kinetic

compound=COc1ccccc1/C=C/C(=O)Nc1cccnc1 val="> 0.0381 mg/mL"
compound=Cn1c(SCc2ccc([N+](=O)[O-])cc2)nnc1-c1ccncc1 val="> 0.0491 mg/mL"
compound="Cc1c(C)[n+](=O)c2c(n1[O-])C(Br)CCC2Br (stereo not given)" val="> 0.0528 mg/mL"
compound=CCOC(=O)Cc1c(C)nc(Cc2ccc(OC(C)C)cc2)[nH]c1=O val="> 0.0517 mg/mL"
compound="CC(C)CC(=O)Nc1cc2c3c(c1)C(C)C(=O)N3CCC2 (stereo not given)" val="> 0.043 mg/mL"
compound="CC(C(=O)N1CCN=C1c1ccccc1)N1C(=O)c2ccccc2C1=O (stereo not given)" val="> 0.0521 mg/mL"
compound=CCOc1cc(C(=O)NC)cc(Br)c1OCc1ccccc1 val="< 0.0008 mg/mL"
compound=CCC(=O)c1c[nH]c(C(=O)NCc2cccc(C(F)(F)F)c2)c1 val="< 0.0004 mg/mL"
compound=Oc1ccccc1C(=S)N1CCCC1 val="> 0.0311 mg/mL"
compound=Cc1onc(-c2c(F)cccc2Cl)c1C(=O)NC1CC1 val="> 0.0442 mg/mL"
